Attribution: patent US20250092065A1

Tested on: MYB mRNA
ASSAY EXPLANATION: RT-qPCR splicing assay, MYB mRNA canonical (CJ) and alternative (AJ) junction
Assay type: cell-based, human
TEST CONTEXT: Homo sapiens, MYB canonical junction mRNA, RT-qPCR; read-out: MYB CJ (decrease in CJ mRNA levels, IC50)
pIC50: −log10 of the molar value.
PROPERTY NAME: pIC50

Example entries and their recorded answers appear below.
input: Entry Cn1cc2cc(-c3ccc4nc(N5CCC(NC(C)(C)C)C5)ccc4n3)c(O)cc2n1 (stereo not drawn) has what pIC50?
output: > 7.00

input: // returns reported pIC50 for input Cn1cc2cc(-c3ccc4nc(N5CC[C@@H](NCC(F)(F)F)C5)ccc4n3)c(O)cc2n1
output: < 5.00

input: Field request: pIC50 | item: Cn1cc2cc(-c3ccc4nc(N5CCC(NC6(CF)CC6)C5)ccc4n3)c(O)c(F)c2n1 (stereo in doubt) [Compound 357]
output: > 7.00

input: # get_value(readout='pIC50', item= Cc1nc2cc(O)c(-c3ccc4nc(N5CCN6CCCC6C5)ccc4n3)cc2o1 (stereo not drawn) )
output: 6.00 to 7.00

input: GET /values?readout=pIC50&item= CNC(=O)c1nc(-c2cc3cn(C)nc3c(F)c2O)nc2ccc(N3C[C@@H](C)N[C@@H](C)C3)cc12
output: > 7.00

Next:
input: What value of measured pIC50 is listed for Cc1nc2cc(O)c(-c3ccc4nc(N5CC[C@@H](N[C@H]6C[C@@H](F)C6)C5)ccc4n3)cc2o1 (stereo in doubt) ?
output: 6.00 to 7.00

input: Please give the measured pIC50 for this compound: Cc1nc2c(C)c(O)c(-c3ccc4nc(N5CCC(NC6CCC6)C5)ccc4n3)cc2o1 (stereo not drawn)
output: > 7.00

input: What value of pIC50 has been recorded for this entry: Cc1nc2cc(O)c(-c3ccc4nc(N5CCNC6(CC6)C5)ccc4n3)cc2o1
output: 6.00 to 7.00

input: Which pIC50 value belongs to Cc1c(O)c(-c2ncc3nc([C@H]4CCNC4)ccc3n2)cc2cn(C)nc12 ?
output: 5.00 to 6.00
